- protocol: ElogD 7.4
- Format: physicochemical
- test.parameters: pH 7.4
result.type: chromatographic logD

>>> assay_value("Cn1cc(-c2ccc(Cc3cc(C(=O)N[C@H]4CCOC[C@@H]4O)nn3C3CCCC3)cc2)cn1 [17g]")
3.05
>>> assay_value("Cn1cc(-c2ccc(Cc3cc(C(=O)N[C@H]4CCCC[C@@H]4O)nn3C3CCCC3)cc2)cn1 [17k]")
4.15

###

- protocol: Brain to plasma ratio (PK/PBL cassette)
- Type: in vivo
- test.parameters: rat
result.type: Kp

a. Cn1cc(-c2ccc(Cc3cc(C(=O)N[C@H]4CCCC[C@@H]4O)nn3C3CCCC3)cc2)cn1 [17k]
b. Cn1cc(-c2ccc(Cc3cc(C(=O)N[C@H]4CCOC[C@@H]4O)nn3C3CCCC3)cc2)cn1 [17g]
// compare measured Kp, left a , right b , return larger Select an item and report its label.
a
(a: 0.63, b: 0.12)

###

- tested.target: human muscarinic receptor subtype 1 (M1) (Homo sapiens, UniProt P11229)
- Sequence (P11229 whole entry): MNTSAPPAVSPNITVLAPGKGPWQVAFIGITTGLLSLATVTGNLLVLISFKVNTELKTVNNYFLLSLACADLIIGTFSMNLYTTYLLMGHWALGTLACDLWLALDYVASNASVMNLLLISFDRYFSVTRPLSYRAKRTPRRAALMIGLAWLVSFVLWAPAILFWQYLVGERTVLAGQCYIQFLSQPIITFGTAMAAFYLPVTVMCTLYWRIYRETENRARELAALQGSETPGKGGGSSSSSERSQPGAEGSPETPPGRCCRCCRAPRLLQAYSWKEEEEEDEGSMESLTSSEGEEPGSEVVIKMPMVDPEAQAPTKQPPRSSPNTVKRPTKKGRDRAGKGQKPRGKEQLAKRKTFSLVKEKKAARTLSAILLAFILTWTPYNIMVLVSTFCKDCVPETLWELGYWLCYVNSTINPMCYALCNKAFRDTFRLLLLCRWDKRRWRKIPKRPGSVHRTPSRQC
- protocol: Calcium mobilization assay in hM1-CHO cells, PAM activity with EC20 acetylcholine
- Type: cell-based
result.type: hM1 %ACh Max ± SEM (%ACh Max)

>>> assay_value("Cn1cc(-c2ccc(Cc3cc(C(=O)N[C@H]4CCCCC[C@@H]4O)nn3-c3ccccc3)cc2)cn1 [17e]")
72
>>> assay_value("Cn1cc(-c2ccc(Cc3cc(C(=O)N[C@H]4CCCCC[C@@H]4O)nn3C3CCCC3)cc2)cn1 [17l]")
79
>>> assay_value("Cn1cc(-c2ccc(Cc3cc(C(=O)N[C@@H]4CCOC[C@H]4F)nn3C3CCCC3)cc2)cn1 [17n]")
67
>>> assay_value("Cn1cc(-c2ccc(Cc3cc(C(=O)N[C@H]4CCCC[C@@H]4O)nn3-c3ccccc3)cc2)cn1 [17a]")
70

I. Cn1cc(-c2ccc(Cc3cc(C(=O)N[C@H]4CC[C@@H]4O)nn3-c3ccccc3)cc2)cn1 [17d]
II. Cn1cc(-c2ccc(Cc3cc(C(=O)N[C@H]4CCOC[C@@H]4O)nn3C3CCCCC3)cc2)cn1 [17h]
// compare measured hM1 %ACh Max ± SEM, left I , right II , return larger Select an item and report its label.
II

###

- tested.target: rat muscarinic receptor subtype 1 (M1) (Rattus norvegicus)
- Construct: expressed in transfected cells
- Sequence (P08482 whole entry): as the sequence (P11229 whole entry) above, with A5V, T254S, P309S, R320K, A337G, I413V counted along it
- protocol: Calcium mobilization assay in rM1-CHO cells, PAM activity with EC20 acetylcholine
- Format: cell-based
result.type: rM1 %ACh Max ± SEM (%ACh Max)

>>> assay_value("Cn1cc(-c2ccc(Cc3cc(C(=O)N[C@H]4CCCC[C@@H]4O)nn3C3CCCC3)cc2)cn1 [17k]")
83

I. Cn1cc(-c2ccc(Cc3cc(C(=O)N[C@H]4CCOC[C@@H]4O)nn3C3CCCCC3)cc2)cn1 [17h]
II. Cn1cc(-c2ccc(Cc3cc(C(=O)NC4CC(F)C4)nn3C3CCCC3)cc2)cn1 (stereo not shown) [17o]
Which has the smaller recorded rM1 %ACh Max ± SEM, I or II ? Select an item and report its label.
II

###

- tested.target: human muscarinic receptor subtype 1 (M1) (Homo sapiens)
- protocol: Calcium mobilization assay in hM1-CHO cells, PAM activity with EC20 acetylcholine
- Format: cell-based
- test.parameters: read-out: hM1 pEC50 ± SEM (converted)
result.type: EC50 (nM)

>>> assay_value("Cn1cc(-c2ccc(Cc3cc(C(=O)N[C@H]4CCOC[C@@H]4O)nn3C3CCCCC3)cc2)cn1 [17h]")
4900

1. Cn1cc(-c2ccc(Cc3cc(C(=O)N[C@H]4CCOC[C@@H]4O)nn3C3CCCC3)cc2)cn1 [17g]
2. Cn1cc(-c2ccc(Cc3cc(C(=O)N[C@H]4CCCCC[C@@H]4O)nn3-c3ccccc3)cc2)cn1 [17e]
3. Cn1cc(-c2ccc(Cc3cc(C(=O)N[C@H]4CCCC[C@@H]4O)nn3-c3ccccc3)cc2)cn1 [17a]
4. Cn1cc(-c2ccc(Cc3cc(C(=O)N[C@H]4CCCCC[C@@H]4O)nn3C3CCCC3)cc2)cn1 [17l]
5. Cn1cc(-c2ccc(Cc3cc(C(=O)N[C@H]4CCOC[C@@H]4O)nn3-c3ccccc3)cc2)cn1 [17b]
Order the records by EC50, with each subsequent value no larger than the one before. Kindly provide the labels arranged according to the requested ordering.
2, 3, 5, 4, 1
(2: 4570 nM, 3: 3020 nM, 5: 2000 nM, 4: 661 nM, 1: 427 nM)

###

- tested.target: rat muscarinic receptor subtype 1 (M1) (Rattus norvegicus)
- Construct: expressed in transfected cells
- protocol: Calcium mobilization assay in rM1-CHO cells, PAM activity with EC20 acetylcholine
- Assay type: cell-based
result.type: rM1 %ACh Max ± SEM (%ACh Max)

>>> assay_value("Cn1cc(-c2ccc(Cc3cc(C(=O)N[C@H]4CCOC[C@@H]4O)nn3Cc3ccccc3)cc2)cn1 [17f]")
57
>>> assay_value("Cn1cc(-c2ccc(Cc3cc(C(=O)N[C@H]4CCCC[C@@H]4O)nn3-c3ccccc3)cc2)cn1 [17a]")
80
>>> assay_value("Cn1cc(-c2ccc(Cc3cc(C(=O)N[C@H]4CCOC[C@@H]4O)nn3C3CCCC3)cc2)cn1 [17g]")
83
>>> assay_value("Cn1cc(-c2ccc(Cc3cc(C(=O)N[C@H]4CCCCC[C@@H]4O)nn3-c3ccccc3)cc2)cn1 [17e]")
80

###

- tested.target: human muscarinic receptor subtype 1 (M1) (Homo sapiens)
- protocol: Calcium mobilization assay in hM1-CHO cells, PAM activity with EC20 acetylcholine
- Format: cell-based
- test.parameters: read-out: hM1 pEC50 ± SEM (converted)
- Description: page 2: Procedures for Biological Experiments Calcium mobilization assays: To measure the functional activity of positive allosteric modulator (PAM) compounds in a cellular assay, human or rat muscarinic receptor subtype 1 (M1) was stably expressed in the Chinese hamster ovary (CHO) cells to evoke an increase in intracellular calcium to an EC20 concentration of acetylcholine (ACh) agonist. […]
result.type: EC50 (nM)

A selection of reference data follows.
>>> assay_value("Cn1cc(-c2ccc(Cc3cc(C(=O)N[C@@H]4CCOC[C@H]4F)nn3C3CCCC3)cc2)cn1 [17n]")
6610
>>> assay_value("Cn1cc(-c2ccc(Cc3cc(C(=O)N[C@H]4CCC[C@@H]4O)nn3C3CCCC3)cc2)cn1 [17m]")
2140

P. Cn1cc(-c2ccc(Cc3cc(C(=O)N[C@H]4CCOC[C@@H]4O)nn3C3CCOC3)cc2)cn1 (stereo partly shown) [17j]
Q. Cn1cc(-c2ccc(Cc3cc(C(=O)NC4CC5(COC5)C4)nn3C3CCCC3)cc2)cn1 [17p]
// compare measured EC50, left P , right Q , return larger Select an item and report its label.
Q

###

- tested.target: human muscarinic receptor subtype 1 (M1) (Homo sapiens, UniProt P11229)
- protocol: Calcium mobilization assay in hM1-CHO cells, PAM activity with EC20 acetylcholine
- Format: cell-based
- test.parameters: read-out: hM1 pEC50 ± SEM (converted)
// reported EC50 per item

>>> assay_value("Cn1cc(-c2ccc(Cc3cc(C(=O)N[C@H]4CCC[C@@H]4O)nn3-c3ccccc3)cc2)cn1 [17c]")
"> 10 µM"
>>> assay_value("Cn1cc(-c2ccc(Cc3cc(C(=O)N[C@H]4CCOC[C@@H]4O)nn3Cc3ccccc3)cc2)cn1 [17f]")
"> 10 µM"

Field: next compound
Lab note: measured EC50 of Cn1cc(-c2ccc(Cc3cc(C(=O)N[C@H]4CC[C@@H]4O)nn3-c3ccccc3)cc2)cn1 [17d] was > 10 µM
